Source of measurements: patent US20130230533A1

# TEST TARGET: T1, human CD48 (on primary human peripheral blood mononuclear cells) (human, UniProt P09326 27-220)
# T1 sequence: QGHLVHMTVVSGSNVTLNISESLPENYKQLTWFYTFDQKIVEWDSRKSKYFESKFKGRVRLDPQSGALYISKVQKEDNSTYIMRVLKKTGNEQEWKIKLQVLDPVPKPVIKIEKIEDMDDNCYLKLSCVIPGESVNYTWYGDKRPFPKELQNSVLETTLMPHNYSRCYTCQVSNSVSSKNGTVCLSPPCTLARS
# METHOD: cell-based or functional assay
OBSERVABLE: % Blockade of IFNγ release, MLR; D1 (%)
Give the quantity in %, number only.

Fill blank: measured % Blockade of IFNγ release, MLR; D1 of the binder H4H1763N (antibody, human IgG4, V domains shown, Human IgG4 Fc (H4H) form of 1763N) VH: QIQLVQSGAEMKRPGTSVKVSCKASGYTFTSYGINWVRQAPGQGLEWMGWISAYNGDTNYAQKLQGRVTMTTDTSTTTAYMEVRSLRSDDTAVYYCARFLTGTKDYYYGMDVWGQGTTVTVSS VL: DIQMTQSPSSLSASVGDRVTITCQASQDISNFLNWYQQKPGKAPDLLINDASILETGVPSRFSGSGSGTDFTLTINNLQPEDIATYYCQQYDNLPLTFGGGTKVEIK is ____.
59
